Entries and their measured shrunken log2 fold change follow.
Tested on: Escherichia coli TOP10;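 also: peptides expressed intracellularly from a pBAD plasmid library in pooled LB shake-flask culture, induced with 0.3% L-arabinose, DNA abundance read by NGS, three biological replicates, DESeq2 with apeglm shrinkage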
Experiment: shrunken log2 fold change of peptide-encoding DNA abundance (4.5 h post-induction vs induction); higher = less antimicrobial activity (less host growth inhibition)
Settings: time post-induction: 4.5 h; library: site-saturation at positions 5, 18, 19, 20
Metric: shrunken log2 fold change

{"columns": ["Record sequence", "Value measured"],
 "data": [
  ["RRIRQRPPRLPRPRPRPSWQPRP", -0.0449],
  ["RRIRNRPPRLPRPRPRPLVEPRP", -0.187],
  ["RRIRVRPPRLPRPRPRPGCYPRP", -0.112],
  ["RRIRTRPPRLPRPRPRPWDYPRP", -0.139],
  ["RRIRVRPPRLPRPRPRPWRVPRP", 0.435],
  ["RRIRHRPPRLPRPRPRPLRVPRP", 0.298],
  ["RRIRMRPPRLPRPRPRPSTHPRP", 0.021],
  ["RRIRNRPPRLPRPRPRPPQHPRP", 0.149],
  ["RRIRWRPPRLPRPRPRPSPYPRP", -0.25],
  ["RRIRHRPPRLPRPRPRPKYNPRP", -0.892],
  ["RRIRDRPPRLPRPRPRPYCCPRP", -0.151],
  ["RRIRERPPRLPRPRPRPCPRPRP", -0.021],
  ["RRIRIRPPRLPRPRPRPMCHPRP", -0.316],
  ["RRIRLRPPRLPRPRPRPTIPPRP", 0.0895],
  ["RRIRFRPPRLPRPRPRPCKRPRP", 0.0187]
]}
